Test system: 786-0 renal
Test: NCI tumour cell line growth inhibition, 48 h
Parameter: TGI

Sample records with TGI:
compound=O=C1c2ccccc2C(=O)C1(Cl)C1(S(=O)(=O)O)c2ccccc2-c2ccccc21 parameter=TGI assay_value="> 100 µM"
compound="CC1OC2CC(=O)OC2C2=C1C(=O)c1c(O)cccc1C2=O (stereo unspecified)" parameter=TGI assay_value="0.292 µM"
compound=COc1cc(-c2cc(=O)c3c(OC)c(OC)c(OC)c(OC)c3o2)c(OC)c(OC)c1OC parameter=TGI assay_value="> 100 µM"
compound=N#C/C(C(=O)Nc1ccccc1)=C(/N)N1CCOCC1 parameter=TGI assay_value="> 100 µM"
compound="O=c1nc2occc2cn1C1CC(O)C(CO)O1 (stereo unspecified)" parameter=TGI assay_value="> 100 µM"

// next entry
Entry CC(C)(C)C(=O)OCOP(=O)(OCOC(=O)C(C)(C)C)C1CCCN(O)C1=O (stereo unspecified) ; TGI = 18.1 µM
